# TARGET UNDER TEST: 5-HT7 receptor (Homo sapiens, UniProt P34969)
# Sequence (P34969 1-432 limits assumed): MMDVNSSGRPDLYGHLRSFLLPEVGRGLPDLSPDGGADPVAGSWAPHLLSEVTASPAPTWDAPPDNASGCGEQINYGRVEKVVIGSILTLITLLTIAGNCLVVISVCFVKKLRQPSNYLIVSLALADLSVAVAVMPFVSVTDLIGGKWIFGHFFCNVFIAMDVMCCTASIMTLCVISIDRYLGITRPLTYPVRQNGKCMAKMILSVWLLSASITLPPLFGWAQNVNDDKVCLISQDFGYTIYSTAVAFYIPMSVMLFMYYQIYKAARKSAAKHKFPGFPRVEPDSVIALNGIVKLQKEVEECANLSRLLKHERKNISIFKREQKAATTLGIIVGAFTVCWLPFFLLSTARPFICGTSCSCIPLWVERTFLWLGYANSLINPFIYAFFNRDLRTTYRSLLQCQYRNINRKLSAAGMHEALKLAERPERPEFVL
# METHOD SUMMARY: Radioligand binding, 5-HT7 ([3H]-5-CT displacement)
QUANTITY NAME: pKi
Answer as the number alone; pKi is minus log10 of concentration in mol/L.

Take a look at these entries with their results.
CN1CCN(c2nc3ccccc3c3c2ccn3S(=O)(=O)c2cccc(F)c2)CC1 ... 5.08
O=S(=O)(c1cccc(C(F)(F)F)c1)n1ccc2c(NC3CCNC3)nc3ccccc3c21 (centres unmarked) ... 5.42
O=S(=O)(c1ccc(Cl)s1)n1ccc2c(N3CCN(Cc4ccccc4)CC3)nc3ccccc3c21 ... 4.79
O=S(=O)(c1ccc(F)cc1)n1ccc2c(N3CCNCC3)nc3ccccc3c21 ... 5.19
Cc1ccc2sc(S(=O)(=O)n3ccc4c(N5CCNCC5)nc5ccccc5c43)cc2c1 ... 5.53

// switching to the query compound
Reported pKi ( O=S(=O)(c1ccc(F)cc1)n1ccc2c(NC3CCNC3)nc3ccccc3c21 (centres unmarked) ) = 5.16
